- System under test: human PD-L1 (human) (UniProt Q9NZQ7)
- Sequence (Q9NZQ7 19-290): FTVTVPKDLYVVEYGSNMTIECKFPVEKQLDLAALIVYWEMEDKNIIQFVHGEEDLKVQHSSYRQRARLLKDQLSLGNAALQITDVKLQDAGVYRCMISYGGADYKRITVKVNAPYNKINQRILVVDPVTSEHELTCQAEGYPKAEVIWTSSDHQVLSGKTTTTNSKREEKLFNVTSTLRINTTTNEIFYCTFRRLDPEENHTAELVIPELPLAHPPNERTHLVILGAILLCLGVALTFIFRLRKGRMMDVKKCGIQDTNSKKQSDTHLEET
- Experiment description: flow cytometry, MFI on PD-L1 cells over MFI on CD28 cells
Measurement type: Ratio of PDL1:CD28

A = variant CD80 IgV-Fc M47L/V68M/A71G/D90G (Fc fusion) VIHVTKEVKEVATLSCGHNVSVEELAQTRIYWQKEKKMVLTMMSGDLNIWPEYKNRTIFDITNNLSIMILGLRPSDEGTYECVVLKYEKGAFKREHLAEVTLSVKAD
B = variant CD80 IgV-Fc A26E/V68M/A71G/D90G (Fc fusion) VIHVTKEVKEVATLSCGHNVSVEELEQTRIYWQKEKKMVLTMMSGDMNIWPEYKNRTIFDITNNLSIMILGLRPSDEGTYECVVLKYEKGAFKREHLAEVTLSVKAD
Query: Endpoint returns whichever of A and B has the numerically higher Ratio of PDL1:CD28. State the label of the item chosen.
Result: A
(A: 8.6, B: 2.7)
